- Target of assay: T1, FBF-2 (164-575) (Caenorhabditis elegans, UniProt Q09312 164-575)
- T1 sequence: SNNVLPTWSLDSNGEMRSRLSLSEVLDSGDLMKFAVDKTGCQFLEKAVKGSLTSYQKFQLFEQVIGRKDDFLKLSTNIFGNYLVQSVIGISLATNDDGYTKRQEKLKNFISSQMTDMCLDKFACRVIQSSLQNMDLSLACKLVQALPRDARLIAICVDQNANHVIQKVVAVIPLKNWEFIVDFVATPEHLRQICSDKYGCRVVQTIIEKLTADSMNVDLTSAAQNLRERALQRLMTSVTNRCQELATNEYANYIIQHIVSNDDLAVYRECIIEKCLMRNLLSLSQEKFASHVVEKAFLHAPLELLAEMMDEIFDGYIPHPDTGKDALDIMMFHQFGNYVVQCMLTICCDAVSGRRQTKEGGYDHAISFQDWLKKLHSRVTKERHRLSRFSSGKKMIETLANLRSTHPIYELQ
- Experiment description: EMSA

{"columns": ["Binder", "U", "Kd"],
 "data": [
  ["CGAAAUAAACAUUUUGUACCAUUCAGUC (ssRNA) [cyb-1 RNA]", "nM", 24]
]}
